Measured values drawn from patent US20160355530A1 for this set.

target: HCV NS5B polymerase 1a-H77-C316Y (Hepatitis C virus genotype 1a, UniProt P27958, C2736Y); construct: six-histidine tag; assay: biochemical
Sequence (P27958 2421-2990 C2736Y): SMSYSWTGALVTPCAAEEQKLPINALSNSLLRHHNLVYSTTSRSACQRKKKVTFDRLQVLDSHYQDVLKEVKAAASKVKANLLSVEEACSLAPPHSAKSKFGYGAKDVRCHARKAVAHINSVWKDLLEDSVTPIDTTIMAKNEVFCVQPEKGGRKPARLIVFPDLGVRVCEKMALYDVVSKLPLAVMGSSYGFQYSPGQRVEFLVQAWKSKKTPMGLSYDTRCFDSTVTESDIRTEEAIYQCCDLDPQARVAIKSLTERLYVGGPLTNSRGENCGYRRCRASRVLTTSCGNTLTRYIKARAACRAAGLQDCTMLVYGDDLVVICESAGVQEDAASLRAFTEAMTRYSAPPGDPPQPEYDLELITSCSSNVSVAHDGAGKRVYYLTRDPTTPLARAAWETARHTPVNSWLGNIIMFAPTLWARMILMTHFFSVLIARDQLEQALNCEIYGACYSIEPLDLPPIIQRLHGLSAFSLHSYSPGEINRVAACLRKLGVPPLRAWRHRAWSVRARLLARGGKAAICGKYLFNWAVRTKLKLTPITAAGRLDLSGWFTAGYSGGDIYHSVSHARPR
pIC50: −log10 of the molar value.
Give 1 when the value for pIC50 is at least 7. Give 0 when it is less.

The examples below pair each entry with its known result.
INSERT INTO assay_data (structure_notation, class) VALUES
  ('CS(=O)(=O)N(CCCCO)c1cc2oc(-c3ccc(F)cc3)c(-c3ncc[nH]3)c2cc1C1CC1', 1),
  ('CS(=O)(=O)N(Cc1cc(O)no1)c1cc2oc(-c3ccc(F)cc3)c(-c3ncc[nH]3)c2cc1C1CC1', 0),
  ('CS(=O)(=O)CCCCN(c1cc2oc(-c3ccc(F)cc3)c(C3=NOCN3)c2cc1C1CC1)S(C)(=O)=O', 1),
  ('CS(=O)(=O)N(Cc1cnc(-c2ccc3[nH]ccc3c2)s1)c1cc2oc(-c3ccc(F)cc3)c(-c3ncc[nH]3)c2cc1C1CC1', 0),
  ('CS(=O)(=O)N(CCOc1ccccc1)c1cc2oc(-c3ccc(F)cc3)c(-c3ncc[nH]3)c2cc1C1CC1', 0);

Next:
Hi team, for `CC(=O)CCCCN(c1cc2oc(-c3ccc(F)cc3)c(-c3ncc[nH]3)c2cc1C1CC1)S(C)(=O)=O` , is the recorded pIC50 at or above 7?
1

###

# EC50 values compiled below
system: HCV 1b-BB7 subgenomic replicon; assay: microbe, parasite or virus in culture; format: cell-based, HCV genotype 1b; settings: Hepatitis C virus, stable replicon, strain 1b BB7, 5% FBS, no human plasma; read-out: 1b BB7 5% FBS EC50
State the answer as a number, implicitly in nM.

As a guide, the following entries are already answered.
INSERT INTO results (compound, measurement_target, obs_value) VALUES
  ('CS(=O)(=O)N(CC1CC1(F)F)c1cc2oc(-c3ccc(F)cc3)c(-c3ncc[nH]3)c2cc1C1CC1 (stereo not shown)', 'HCV 1b-BB7 subgenomic replicon', 37),
  ('CCCCN(c1cc2oc(-c3ccc(F)cc3)c(-c3ncc[nH]3)c2cc1C1CC1)S(C)(=O)=O', 'HCV 1b-BB7 subgenomic replicon', 29.7),
  ('CS(=O)(=O)N(CCN1CCCC1)c1cc2oc(-c3ccc(F)cc3)c(-c3ncc[nH]3)c2cc1C1CC1', 'HCV 1b-BB7 subgenomic replicon', 36.9),
  ('CC(C)CCN(c1cc2oc(-c3ccc(F)cc3)c(C3=NOCC(=O)N3)c2cc1C1CC1)S(C)(=O)=O', 'HCV 1b-BB7 subgenomic replicon', 327);

Fill in EC50 for record `CS(=O)(=O)N(CCCc1nsc(=O)[nH]1)c1cc2oc(-c3ccc(F)cc3)c(-c3ncc[nH]3)c2cc1C1CC1`
18

Return EC50 for the following compound: `CS(=O)(=O)N(CCCS(=O)(=O)N1CCOCC1)c1cc2oc(-c3ccc(F)cc3)c(-c3ncc[nH]3)c2cc1C1CC1`
6.9

Answer with the recorded EC50 for the compound listed here: `CCCCCN(c1cc2oc(-c3ccc(F)cc3)c(-c3ncc[nH]3)c2cc1C1CC1)S(C)(=O)=O`
35.6

###

system: HCV 1b-BB7 subgenomic replicon; experiment: microbe, parasite or virus in culture; assay type: cell-based, HCV genotype 1b; settings: Hepatitis C virus, stable replicon, strain 1b BB7, 5% FBS + 40% human plasma; read-out: 1b BB7 5% FBS + 40% Human Plasma EC50
pEC50: −log10 of the molar value.
# cutoff 6 applies to pEC50; >= gives T, < gives F

Is it the case that `Cn1ccc2cc(-c3ncc(CN(c4ccc5c(-c6ncc[nH]6)c(-c6ccccc6)oc5c4)S(C)(=O)=O)s3)ccc21` has pEC50 reaching or exceeding 6?
F

Kindly determine if pEC50 recorded for `CS(=O)(=O)N(CCCC(=O)O)c1cc2oc(-c3ccc(F)cc3)c(-c3ncc[nH]3)c2cc1C1CC1` is above or exactly 6.
T

Threshold query (pEC50 >= 6) on `CC(C)CCCN(c1cc2oc(-c3ccc(F)cc3)c(-c3ncc[nH]3)c2cc1C1CC1)S(C)(=O)=O`
T

Given `[2H]C([2H])(CCCCC)N(c1cc2oc(-c3ccc(F)cc3)c(-c3ncc[nH]3)c2cc1C1CC1)S(C)(=O)=O` , state whether its pEC50 is at least 6.
T
